Value source: patent US20250282890A1

target: T1, recombinant human PSMA (prostate-specific membrane antigen), biotin-tagged (human, UniProt Q04609 44-750, biotin tag (site not stated)); assay: ELISA on plates coated with recombinant PSMA, column head 'ELISA (nM)'
T1 construct: also called biotin-tagged PSMA; biotin-labelled PSMA
T1 sequence (Q04609 44-750 limits assumed): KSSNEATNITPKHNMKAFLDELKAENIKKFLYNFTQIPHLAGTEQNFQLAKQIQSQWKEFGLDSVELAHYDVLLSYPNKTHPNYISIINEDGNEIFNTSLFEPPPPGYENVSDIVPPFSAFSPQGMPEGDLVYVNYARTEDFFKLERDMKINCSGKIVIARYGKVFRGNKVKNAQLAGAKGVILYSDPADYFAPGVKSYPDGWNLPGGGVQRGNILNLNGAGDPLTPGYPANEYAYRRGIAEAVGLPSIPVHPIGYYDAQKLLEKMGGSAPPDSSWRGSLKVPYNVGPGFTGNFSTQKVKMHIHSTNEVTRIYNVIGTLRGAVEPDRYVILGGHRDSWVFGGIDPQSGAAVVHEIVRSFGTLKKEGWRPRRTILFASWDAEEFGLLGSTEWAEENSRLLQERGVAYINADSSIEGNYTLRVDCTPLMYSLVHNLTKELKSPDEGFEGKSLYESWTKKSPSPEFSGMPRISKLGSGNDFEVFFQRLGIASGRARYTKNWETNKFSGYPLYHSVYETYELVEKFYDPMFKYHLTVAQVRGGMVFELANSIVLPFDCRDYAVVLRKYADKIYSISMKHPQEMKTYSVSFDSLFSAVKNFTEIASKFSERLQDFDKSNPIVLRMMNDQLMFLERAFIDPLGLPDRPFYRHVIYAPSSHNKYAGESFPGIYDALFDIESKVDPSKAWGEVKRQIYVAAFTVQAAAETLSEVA
MEASURED_PARAMETER: pKd
Reminder that pKd is minus the log10 of a molar concentration.

Illustrative cases are given below, each with its answer.
h5D3 variant HVg7 (antibody, human IgG1, V domains shown, Full-length human IgG1 kappa variant of h5D3 (antibody 6)) VH: EVQLVESGGGLVQPGGSLRLSCAASGYAFQTSWMNWVRQAPGKGLEWISRIYPGDGDTNYNGKFKGKATISADKSKNTLYLQMNSLRAEDTAVYYCARGEWYLYYFDYWGQGTLVTVSS VL: DIQMTQSPSSLSASVGDRVTITCSASQGINNFLTWYQQKPGKALKLLIYYTSSLHSGVPSRFSGSGSGTDYTLTISSLQPEDFATYYCQQYSNLPFTFGQGTKVEIK: 9.46
h5D3 variant LVg2HVg3 (antibody, human IgG1, V domains shown, Full-length human IgG1 kappa variant of h5D3 (antibody 6)) VH: EVQLVESGGGLVQPGGSLRLSCAASGYAFQTSWMNWVRQAPGKGLEWISRIYPGEGETNYNAKFKGKATISADKSKNTLYLQMNSLRAEDTAVYYCARGEWYLYYFDYWGQGTLVTVSS VL: DIQMTQSPSSLSASVGDRVTITCSASQGIENFLTWYQQKPGKALKLLIYYTSSLHSGVPSRFSGSGSGTDYTLTISSLQPEDFATYYCQQYSNLPFTFGQGTKVEIK: 8.57

Now take the following binder into account.
Tell me the measured pKd of h5D3 variant HVg4 (antibody, human IgG1, V domains shown, Full-length human IgG1 kappa variant of h5D3 (antibody 6)) VH: EVQLVESGGGLVQPGGSLRLSCAASGYAFQTSWMNWVRQAPGKGLEWISRIYPGEGDTNYNAKFKGKATISADKSKNTLYLQMNSLRAEDTAVYYCARGEWYLYYFDYWGQGTLVTVSS VL: DIQMTQSPSSLSASVGDRVTITCSASQGINNFLTWYQQKPGKALKLLIYYTSSLHSGVPSRFSGSGSGTDYTLTISSLQPEDFATYYCQQYSNLPFTFGQGTKVEIK , please.
9.44
